- System: HCT-15 colon
- procedureSummary: NCI tumour cell line growth inhibition, 48 h
Reported values of TGI for individual entries
experimentalReadout: TGI

>>> valueobserved("COc1cc(/C=c2/c3ccccc3n3c2cc(-c2ccccc2)[n+]3C)cc(OC)c1OC")
"18.5 µM"
>>> valueobserved("O=CC(Br)C(Br)c1ccccc1 (stereo not drawn)")
"2.93 µM"
>>> valueobserved("COc1ccc2c(c1)CC1(O)COc3cc(OC)ccc3C1O2 (stereo not drawn)")
"> 100 µM"
>>> valueobserved("O=C(O)c1ccc2c3c(ncnc13)-c1ccccc1C2=O")
"> 48 µM"
>>> valueobserved("CCOc1cc2c(cc1O)CC[C@@H]1[C@@H]2CC[C@]2(C)C(OS(=O)OC3CC[C@@H]4[C@H]5CCc6cc(O)c(OCC)cc6[C@@H]5CC[C@@]34C)CC[C@@H]12 (stereo partly drawn)")
"15.3 µM"
>>> valueobserved("O=C(NCCCCCCNC(=O)n1cc(F)c(=O)[nH]c1=O)NCCCOCCOCCOCCOCCOCCOCCOCCOCCOCCOCCOCCOCCOCCOCCOCCOCCOCCOCCOCCOCCOCCCNC(=O)C(O)C(O)C(OC1OC(CO)C(O)C(O)C1O)C(O)CO (stereo not drawn)")
"> 100 µM"
>>> valueobserved("CCN(CC)CCCC(C)Nc1c2ccc(Cl)cc2nc2cc(OC)c(OC)cc12 (stereo not drawn)")
"3.49 µM"
>>> valueobserved("O=[N+]([O-])c1ccc2nc(/C=C(\\O)c3ccccc3)c(/C=C(\\O)c3ccccc3)nc2c1")
"> 100 µM"
